The values you see were collected from patent US12129221B2.

# Assay name: Hepatocyte stability, dog
# Format: in vitro ADME
# Condition notes: dog, hepatocytes, Hepatocyte stability; read-out: Dog T1/2
Assign half-life to each entry below.
Numbers only, in min.

Below, each entry is followed by its recorded half-life result.
Molecule | Experimental value
[2H]CC([2H])C(C)(C)C(=O)N(O)Cc1cc(F)cc(F)c1 (stereo not drawn) | 8.43
CCC(C)(C)C(=O)N(O)Cc1cc(F)cc(F)c1 | 12.8

--- query ---
Summary for this molecule, CCC(C)(C)C(=O)N(O)Cc1ccccc1 [Compound 92, reference compound] : half-life is 13.9

====

Assign half-life to each entry below.
# Assay name: Hepatocyte stability, rat
# Type: in vitro ADME
# Condition notes: rat, hepatocytes, Hepatocyte Stability, comparison table; read-out: Rat T1/2
Answers are plain numbers, in min.

Compound | Endpoint | Endpoint unit | Experimental value
CCC(C)(C)C(=O)N(O)Cc1cc(F)cc(F)c1 | half-life | min | 28

--- query ---
Summary for this compound, CCC(C)(C)C(=O)N(O)Cc1ccccc1 [Compound 92, reference compound] : half-life is 14

====

# Assay name: PK in rat
# Parameters: species or system SD rat
# Condition notes: Sprague-Dawley, in vivo; Rat, PO 20 mg/kg
Endpoint: AUC(0-inf)
Please give the number followed by its unit.

Summary for this compound, CCC(C)(C)C(=O)N(O)Cc1cc(F)cc(F)c1 [Compound 13] : AUC(0-inf) is 1580 ng·h/mL

====

# Assay name: PK in dog
# Condition notes: in vivo, IV 5 mg/kg
Endpoint: half-life (h)
One number for each entry, in h.

Summary for this molecule, `CCC(C)(C)C(=O)N(O)Cc1ccc(F)cc1` : half-life is 2

====

# Assay name: Liver microsome stability, rat
# Type: in vitro ADME
# Condition notes: liver microsomes, comparison table with WO2016/101885 compounds, read-out: Rat Liver Microsome T1/2
Endpoint: half-life
Please give the number followed by its unit.

Molecule | Experimental value
CCC(C)(C)C(=O)N(O)Cc1cc(F)cc(F)c1F [SIR1-176] | 22 min
CCC(C)(C)C(=O)N(O)Cc1cc(F)cc(F)c1 [Compound 13] | 20 min
CCC(C)(C)C(=O)N(O)Cc1ccc(F)c(F)c1F [SIR1-184] | 19 min
CCC(C)(C)C(=O)N(O)Cc1cc(F)c(F)c(F)c1 [SIR1-186] | 21 min

--- query ---
Summary for this molecule, CCC(C)(C)C(=O)N(O)Cc1ccc(F)cc1F [SIR1-179] : half-life is 28 min

====

# Assay name: PK in dog
# Condition notes: in vivo, PO 150 mg/kg
Endpoint: Cmax
Please give the number followed by its unit.

Summary for this molecule, CCC(C)(C)C(=O)N(O)Cc1cc(F)cc(F)c1 [Compound 13] : Cmax is 2440 ng/mL

====

# Assay name: PK in rat
# Design: species or system SD rat
# Condition notes: Sprague-Dawley, rat, in vivo, po, 60 mg/kg, SD rat, dose 60 mg/Kg micropower
Assign bioavailability to each entry below.
Give bare numbers, in %.

Compound | Experimental value
CCC(C)(C)C(=O)N(O)Cc1cc(F)cc(F)c1 | 62.8

--- query ---
Summary for this compound, [2H]CC([2H])C(C)(C)C(=O)N(O)Cc1cc(F)cc(F)c1 (centres unmarked) : bioavailability is 74.1
